Target: T1, recombinant human nectin-4 (human, UniProt Q96NY8 32-349)
T1 construct: nectin-4, human, recombinant; also called complete extracellular domain of nectin-4; source: bought: R&D Systems (Catalog number 2659-N4)
T1 sequence (looked up): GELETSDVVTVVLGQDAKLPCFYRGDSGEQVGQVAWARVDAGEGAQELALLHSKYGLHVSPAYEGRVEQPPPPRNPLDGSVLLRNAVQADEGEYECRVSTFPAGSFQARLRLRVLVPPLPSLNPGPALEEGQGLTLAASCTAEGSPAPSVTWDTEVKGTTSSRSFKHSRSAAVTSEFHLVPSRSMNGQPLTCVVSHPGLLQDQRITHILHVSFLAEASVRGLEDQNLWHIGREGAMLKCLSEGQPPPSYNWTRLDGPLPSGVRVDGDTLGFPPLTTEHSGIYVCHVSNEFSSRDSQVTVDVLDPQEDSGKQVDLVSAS
Assay: fluorescence polarisation; fluorescence anisotropy, competition: 1 nM probe 1a, 20 nM nectin-4, 10 concentrations of nonlabeled peptide, 37 °C, HEPES buffer pH 7.4, 1% DMSO; IC50 transformed into Kd (Nikolovska-Coleska equation, Kd of 1a 0.94 nM)
Details: both partners purified
Numbered stars: 1 amine (or outer) side, 2 acyl side, 3 side chain; on linkers, the order of the positions; unused ones are H or OH. Bridge positions count the residues as written; N and C are the ends. Square brackets hold non-standard residues; d marks the D form. * marks the point of attachment. (R)‑NODAGA = O=C(O)CN1CCN(CC(=O)O)CCN([C@H](CCC(=O)*)C(=O)O)CC1; DOTA = O=C(O)CN1CCN(CC(=O)O)CCN(CC(=O)*)CCN(CC(=O)O)CC1; TATA = O=C(CC[*:1])N1CN(C(=O)CC[*:2])CN(C(=O)CC[*:3])C1; 1Nal = N[C@@H](Cc1cccc2ccccc12)C(=O)O; 2Nal = N[C@@H](Cc1ccc2ccccc2c1)C(=O)O; Hyp = O=C(O)[C@@H]1C[C@@H](O)CN1; hArg = N=C(N)NCCCC[C@H](N)C(=O)O; Met(O) = CS(=O)CC[C@H](N)C(=O)O; SeMet = C[Se]CC[C@H](N)C(=O)O; Nle = CCCC[C@H](N)C(=O)O
Reported Endpoint: pKd
// pKd here means minus log10 of the molar concentration (mol/L)

{"Binder": "Ac-CP[1Nal][dD]CM[hArg]DWSTP[Hyp]WC-NH2 (linker 1-5-15 via TATA) [1d (BCY8126)]", "pKd": 9.14}
{"Binder": "{DOTA}-CP[2Nal][dD]CMRDWSTP[Hyp]WC-NH2 (linker 1-5-15 via TATA) [8c]", "pKd": 6.83}

Problem: Look at this binder and give its reported pKd. {DOTA}-CP[1Nal][dD]CM[hArg]DWSTP[Hyp]WC-NH2 (linker 1-5-15 via TATA) [1f]
Solution: 8.14

Problem: Queued: {(R)‑NODAGA}-CP[1Nal][dD]CM[hArg]DWSTP[Hyp]WC-NH2 (linker 1-5-15 via TATA; also: NODAGA complexed with natCu) [natCu-1e]
Solution: 9.64

Problem: Queued: {(R)‑NODAGA}-CP[2Nal][dD]CM[hArg]DWSTP[Hyp]WC-NH2 (linker 1-5-15 via TATA) [9]
Solution: 7.94

Problem: Queued: {(R)‑NODAGA}-CP[2Nal][dD]CMRDWSTP[Hyp]WC-NH2 (linker 1-5-15 via TATA) [8a]
Solution: 7.68

Problem: Queued: {(R)‑NODAGA}-CP[1Nal][dD]CM[hArg]DWSTP[Hyp]WC-NH2 (linker 1-5-15 via TATA; also: NODAGA complexed with natGa) [natGa-1e]
Solution: 8.35

Problem: Queued: {(R)‑NODAGA}-CP[1Nal][dD]CMRDWSTP[Hyp]WC-NH2 (linker 1-5-15 via TATA) [10]
Solution: 9.21

Problem: Queued: {(R)‑NODAGA}-CP[1Nal][dD]C[Nle][hArg]DWSTP[Hyp]WC-NH2 (linker 1-5-15 via TATA) [3a]
Solution: 8.98

Problem: Queued: {(R)‑NODAGA}-CP[1Nal][dD]C[Nle][hArg]DWSTP[Hyp]WC-NH2 (linker 1-5-15 via TATA; also: NODAGA complexed with natCu) [natCu-3a]
Solution: 8.91

Problem: Queued: {(R)‑NODAGA}-CP[1Nal][dD]C[SeMet][hArg]DWSTP[Hyp]WC-NH2 (linker 1-5-15 via TATA) [5]
Solution: 8.86

Problem: Queued: {(R)‑NODAGA}-CP[1Nal][dD]C[Met(O)][hArg]DWSTP[Hyp]WC-NH2 (linker 1-5-15 via TATA; also: Met(O): mixture of diastereomers) [2]
Solution: 7.60

Problem: Queued: H-CP[1Nal][dD]CM[hArg]DWSTP[Hyp]WC-NH2 (linker 1-5-15 via TATA) [1c]
Solution: 8.82

Problem: Queued: {DOTA}-CP[2Nal][dD]CMRDWSTP[Hyp]WC-OH (linker 1-5-15 via TATA) [8d (N188)]
Solution: 6.72

Problem: Queued: {(R)‑NODAGA}-CP[1Nal][dD]CM[hArg]DWSTP[Hyp]WC-NH2 (linker 1-5-15 via TATA) [1e]
Solution: 9.11

Problem: Queued: Ac-CP[1Nal][dD]C[Nle][hArg]DWSTP[Hyp]WC-NH2 (linker 1-5-15 via TATA) [3b]
Solution: 9.24
